So I've got a bunch of compounds here, and I need their IC50 values.

Tell me its IC50 on Antithrombin-III (Homo sapiens, UniProt P01008): O=S(=O)(NCCNS(=O)(=O)c1ccc(O)c(O)c1)c1ccc(O)c(O)c1 > 3000 µM

Tell me its IC50 on Antithrombin-III (Homo sapiens, UniProt P01008): CCN(CCN(CC)S(=O)(=O)c1ccc(OC)c(OC)c1)S(=O)(=O)c1ccc(OC)c(OC)c1 > 300 µM

Tell me its IC50 on Antithrombin-III (Homo sapiens, UniProt P01008): CCN(CCN(CC)S(=O)(=O)c1cc(O)ccc1O)S(=O)(=O)c1cc(O)ccc1O > 300 µM

Tell me its IC50 on Antithrombin-III (Homo sapiens, UniProt P01008): CCCN(S(=O)(=O)c1ccc(O)c(O)c1)S(=O)(=O)c1ccc(O)c(O)c1 > 1000 µM

Tell me its IC50 on Antithrombin-III (Homo sapiens, UniProt P01008): CCN(CCN(CC)S(=O)(=O)c1cccc(O)c1)S(=O)(=O)c1cccc(O)c1 > 1000 µM

Tell me its IC50 on Antithrombin-III (Homo sapiens, UniProt P01008): CCN(CCN(CC)S(=O)(=O)c1cc(F)c(O)c(F)c1)S(=O)(=O)c1cc(F)c(O)c(F)c1 > 3000 µM

Tell me its IC50 on Antithrombin-III (Homo sapiens, UniProt P01008): O=S(=O)(c1ccc(O)c(O)c1)N(C1CCCCC1)S(=O)(=O)c1ccc(O)c(O)c1 > 300 µM

Tell me its IC50 on Antithrombin-III (Homo sapiens, UniProt P01008): O=S(=O)(c1ccc(O)c(O)c1)N(Cc1ccccc1)S(=O)(=O)c1ccc(O)c(O)c1 > 300 µM

Tell me its IC50 on Antithrombin-III (Homo sapiens, UniProt P01008): CCN(CCN(CC)S(=O)(=O)c1ccc(O)cc1)S(=O)(=O)c1ccc(O)cc1 > 300 µM

---

TEST SYSTEM: Plasminogen activator inhibitor 1 (Homo sapiens)
Sequence (P05121 whole entry): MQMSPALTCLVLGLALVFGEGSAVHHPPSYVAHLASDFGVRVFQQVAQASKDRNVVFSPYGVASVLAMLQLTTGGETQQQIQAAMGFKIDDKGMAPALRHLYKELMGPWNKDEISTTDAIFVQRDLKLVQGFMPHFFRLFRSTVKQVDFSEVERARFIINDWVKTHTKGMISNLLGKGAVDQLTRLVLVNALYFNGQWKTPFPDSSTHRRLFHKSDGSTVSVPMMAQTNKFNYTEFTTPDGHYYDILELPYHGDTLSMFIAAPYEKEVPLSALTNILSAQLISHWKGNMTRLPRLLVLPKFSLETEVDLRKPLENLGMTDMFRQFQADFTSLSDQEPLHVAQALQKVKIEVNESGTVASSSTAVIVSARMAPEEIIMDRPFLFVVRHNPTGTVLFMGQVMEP
ASSAY: Inhibition of human recombinant PAI1 assessed as rate of AMC release after 30 mins
MEASURED ATTRIBUTE: IC50

Return value of IC50 for input CCCCCCN(S(=O)(=O)c1ccc(O)c(O)c1)S(=O)(=O)c1ccc(O)c(O)c1 , no commentary. 0.284 µM

Return value of IC50 for input O=S(=O)(NCCNS(=O)(=O)c1ccc(O)c(O)c1)c1ccc(O)c(O)c1 , no commentary. 518 µM

Return value of IC50 for input CCN(CCN(CC)S(=O)(=O)c1ccc(O)cc1)S(=O)(=O)c1ccc(O)cc1 , no commentary. > 300 µM
